Ref: patent US7981903B2

# pIC50 per record follows
Target: NIH-3T3 cells overexpressing human IR (Homo sapiens, UniProt P06213)
Sequence (P06213 28-1382): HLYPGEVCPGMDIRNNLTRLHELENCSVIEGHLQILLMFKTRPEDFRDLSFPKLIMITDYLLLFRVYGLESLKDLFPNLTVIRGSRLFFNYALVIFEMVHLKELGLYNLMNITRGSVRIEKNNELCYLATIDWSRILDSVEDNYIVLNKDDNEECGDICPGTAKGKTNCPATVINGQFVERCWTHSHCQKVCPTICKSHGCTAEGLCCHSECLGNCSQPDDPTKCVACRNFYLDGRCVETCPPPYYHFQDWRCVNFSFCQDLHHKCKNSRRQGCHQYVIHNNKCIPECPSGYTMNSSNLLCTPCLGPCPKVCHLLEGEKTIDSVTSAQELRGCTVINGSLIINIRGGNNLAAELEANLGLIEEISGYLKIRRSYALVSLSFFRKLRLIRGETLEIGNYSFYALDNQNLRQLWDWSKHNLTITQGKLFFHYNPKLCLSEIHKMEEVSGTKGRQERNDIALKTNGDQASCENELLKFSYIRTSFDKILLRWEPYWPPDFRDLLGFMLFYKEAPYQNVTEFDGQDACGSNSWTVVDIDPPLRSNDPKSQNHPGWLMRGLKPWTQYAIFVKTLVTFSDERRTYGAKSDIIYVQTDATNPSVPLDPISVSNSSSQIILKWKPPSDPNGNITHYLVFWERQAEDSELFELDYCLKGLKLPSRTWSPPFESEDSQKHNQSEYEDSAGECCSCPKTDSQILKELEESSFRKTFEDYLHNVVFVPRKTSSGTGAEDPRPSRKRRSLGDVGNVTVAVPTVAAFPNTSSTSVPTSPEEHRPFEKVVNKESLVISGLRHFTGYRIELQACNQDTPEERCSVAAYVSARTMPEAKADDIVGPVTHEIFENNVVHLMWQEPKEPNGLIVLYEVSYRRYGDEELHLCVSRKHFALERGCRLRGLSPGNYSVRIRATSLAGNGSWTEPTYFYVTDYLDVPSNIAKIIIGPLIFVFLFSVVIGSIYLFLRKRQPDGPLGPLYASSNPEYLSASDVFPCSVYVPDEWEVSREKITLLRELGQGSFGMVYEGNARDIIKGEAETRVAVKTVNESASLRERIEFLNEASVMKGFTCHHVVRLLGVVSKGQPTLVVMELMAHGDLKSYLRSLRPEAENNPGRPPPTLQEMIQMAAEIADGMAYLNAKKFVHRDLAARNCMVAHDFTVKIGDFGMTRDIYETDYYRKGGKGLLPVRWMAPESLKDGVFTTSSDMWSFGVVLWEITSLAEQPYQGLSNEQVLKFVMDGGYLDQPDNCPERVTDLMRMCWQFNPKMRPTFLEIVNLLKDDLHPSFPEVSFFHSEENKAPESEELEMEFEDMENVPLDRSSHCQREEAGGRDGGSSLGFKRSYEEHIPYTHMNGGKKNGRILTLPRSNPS
Assay: IR cellular autophosphorylation (DELFIA)
Conditions: 2 h compound, insulin 3 ug/ml for 15 minutes, IC50 category
Procedure: NIH-3T3 cells overexpressing human IGF-1R or IR were plated in 96-well plates (10,000 cells/well) in culture media containing 10% fetal bovine serum and incubated at 37° C. in a 5% CO2 incubator. Twenty four hours post-plating, cells were treated with different concentrations of test compounds ranging from 30 uM to 1.5 nM. […] The fluorescence signal for cells treated with compounds was expressed as percent relative to 100% stimulation (IGF-1 or insulin stimulated signal).
pIC50: −log10 of the molar value.
measurement-name: pIC50

# mol, target-of-assay, endpoint-value
data = [
    ("CCN(CCO)CC(=O)N1CCc2cc(OC)c(Nc3nc(Nc4cccc(F)c4C(N)=O)c4cc[nH]c4n3)cc21", "NIH-3T3 cells overexpressing human IR (Homo sapiens, UniProt P06213)", "6.30 to 7.00"),
    ("COc1cc(N2CCC(N3CCCC(F)(F)C3)CC2)ccc1Nc1nc(Nc2cc(F)ccc2C(N)=O)c2cc[nH]c2n1", "NIH-3T3 cells overexpressing human IR (Homo sapiens, UniProt P06213)", "> 7.00"),
    ("COc1cc2c(cc1Nc1nc(Nc3cccc(F)c3C(N)=O)c3cc[nH]c3n1)N(C(=O)CN1CCCCC1)CCC2", "NIH-3T3 cells overexpressing human IR (Homo sapiens, UniProt P06213)", "> 7.00"),
]

====

molecular target: NIH-3T3 cells overexpressing human IR (Homo sapiens); test: IR cellular autophosphorylation (DELFIA); conditions: 2 h compound, insulin 3 ug/ml for 15 minutes, IC50 category

# molecule, target-of-assay, IC50
records = [
    ("COc1cc(C2CCN(C(C)C)CC2)ccc1Nc1nc(Nc2ccc(F)cc2C(N)=O)c2cc[nH]c2n1 [Example 58]", "NIH-3T3 cells overexpressing human IR (Homo sapiens)", "< 100 nM"),
    ("CCN(CC)CC(=O)N1CCc2cc(OC)c(Nc3nc(Nc4cccc(F)c4C(=O)NC)c4cc[nH]c4n3)cc21 [Example 137]", "NIH-3T3 cells overexpressing human IR (Homo sapiens)", "100 to 500 nM"),
    ("COc1cc2c(cc1Nc1nc(Nc3cccc(F)c3C(N)=O)c3cc[nH]c3n1)CN(CCF)CC2 [Example 233]", "NIH-3T3 cells overexpressing human IR (Homo sapiens)", "< 100 nM"),
    ("COc1cc2c(cc1Nc1nc(Nc3cccc(F)c3C(N)=O)c3cc[nH]c3n1)N(C(=O)[C@@H]1CCCN1C)CC2 [Example 147]", "NIH-3T3 cells overexpressing human IR (Homo sapiens)", "100 to 500 nM"),
]

====

target: NIH-3T3 cells overexpressing human IR (Homo sapiens, UniProt P06213); assay: IR cellular autophosphorylation (DELFIA); details: 2 h compound, insulin 3 ug/ml for 15 minutes, IC50 category
# IC50 per record follows

# compound, IC50
measured = [
    ("CNC(=O)c1c(F)cc(Cl)cc1Nc1nc(Nc2cc3c(cc2OC)CCN3C(=O)CN(C)C)nc2[nH]ccc12 [Example 120]", "100 to 500 nM"),
    ("COc1cc(N2CCC(N3CC[C@H](F)C3)CC2)ccc1Nc1nc(Nc2cc(F)ccc2C(N)=O)c2cc[nH]c2n1 [Example 75]", "< 100 nM"),
    ("COc1cc2c(cc1Nc1nc(Nc3cccc(F)c3C(=O)NCC(C)C)c3cc[nH]c3n1)N(C(=O)CN(C)C)CC2 [Example 157]", "100 to 500 nM"),
    ("CCCN1CCC=C(c2ccc(OC)c(Nc3nc(Nc4ccc(F)cc4C(N)=O)c4cc[nH]c4n3)c2)C1 [Example 57]", "< 100 nM"),
    ("CNC(=O)c1cc(F)ccc1Nc1nc(Nc2ccc(N3CCN(C(C)C)CC3)cc2OC)nc2[nH]ccc12 [Example 65]", "100 to 500 nM"),
    ("CNC(=O)c1c(F)cccc1Nc1nc(Nc2cc3c(cc2OC)CCN3C(=O)CN(C)C)nc2[nH]cc(C)c12 [Example 258]", "100 to 500 nM"),
    ("CCN(C)CC(=O)N1CCc2cc(OC)c(Nc3nc(Nc4cccc(F)c4C(=O)NC)c4cc[nH]c4n3)cc21 [Example 165]", "100 to 500 nM"),
    ("CNC(=O)c1c(F)cccc1Nc1nc(Nc2cc3c(cc2OC)CCN3C(C)=O)nc2[nH]ccc12 [Example 135]", "> 500 nM"),
    ("CCCN(C)CC(=O)N1CCc2cc(OC)c(Nc3nc(Nc4cccc(F)c4C(=O)NC)c4cc[nH]c4n3)cc21 [Example 167]", "100 to 500 nM"),
    ("CCCN1CCC=C(c2ccc(Nc3nc(Nc4ccccc4C(=O)NC)c4cc[nH]c4n3)c(OC)c2)C1 [Example 23]", "100 to 500 nM"),
    ("COc1cc2c(cc1Nc1nc(Nc3cc(Cl)cc(F)c3C(N)=O)c3cc[nH]c3n1)N(C(=O)CN(C)C)CC2 [Example 119]", "< 100 nM"),
    ("COc1cc(N2CCN(C(C)C)CC2)ccc1Nc1nc(Nc2cccc(F)c2C(N)=O)c2cc[nH]c2n1 [Example 46]", "100 to 500 nM"),
]

====

target: NIH-3T3 cells overexpressing human IR (Homo sapiens, UniProt P06213); experiment: IR cellular autophosphorylation (DELFIA); conditions: 2 h compound, insulin 3 ug/ml for 15 minutes, IC50 category
measurement-name: IC50

# compound, endpoint-value
measured = [
    ("COc1cc(N2CCN(C(C)=O)CC2)ccc1Nc1nc(Nc2cc(F)c(F)cc2C(N)=O)c2cc[nH]c2n1 [Example 103]", "100 to 500 nM"),
    ("COc1cc2c(cc1Nc1nc(Nc3cccc(F)c3C(N)=O)c3cc[nH]c3n1)N(C(=O)CN(C)C)CC2 [Example 53]", "< 100 nM"),
    ("CCC(C)N1CCc2cc(OC)c(Nc3nc(Nc4cccc(F)c4C(N)=O)c4cc[nH]c4n3)cc2C1 (stereo not drawn) [Example 237]", "< 100 nM"),
    ("CCCN1CCC=C(c2ccc(Nc3nc(Nc4cc(F)ccc4C(=O)N[C@@H](C)CC)c4cc[nH]c4n3)c(OC)c2)C1 [Example 87]", "> 500 nM"),
    ("Cc1ccc(NC(=O)CN2CCCC2)cc1Nc1nc(Nc2ccccc2C(N)=O)c2cc[nH]c2n1 [Example 14]", "100 to 500 nM"),
    ("CCCN1CCCC(c2ccc(Nc3nc(Nc4cccc(OC)c4C(N)=O)c4cc[nH]c4n3)c(OC)c2)C1 (stereo not drawn) [Example 36]", "100 to 500 nM"),
]

====

# pIC50 per record follows
biological target: ALK (Homo sapiens, UniProt Q9UM73)
Sequence (Q9UM73 19-1620): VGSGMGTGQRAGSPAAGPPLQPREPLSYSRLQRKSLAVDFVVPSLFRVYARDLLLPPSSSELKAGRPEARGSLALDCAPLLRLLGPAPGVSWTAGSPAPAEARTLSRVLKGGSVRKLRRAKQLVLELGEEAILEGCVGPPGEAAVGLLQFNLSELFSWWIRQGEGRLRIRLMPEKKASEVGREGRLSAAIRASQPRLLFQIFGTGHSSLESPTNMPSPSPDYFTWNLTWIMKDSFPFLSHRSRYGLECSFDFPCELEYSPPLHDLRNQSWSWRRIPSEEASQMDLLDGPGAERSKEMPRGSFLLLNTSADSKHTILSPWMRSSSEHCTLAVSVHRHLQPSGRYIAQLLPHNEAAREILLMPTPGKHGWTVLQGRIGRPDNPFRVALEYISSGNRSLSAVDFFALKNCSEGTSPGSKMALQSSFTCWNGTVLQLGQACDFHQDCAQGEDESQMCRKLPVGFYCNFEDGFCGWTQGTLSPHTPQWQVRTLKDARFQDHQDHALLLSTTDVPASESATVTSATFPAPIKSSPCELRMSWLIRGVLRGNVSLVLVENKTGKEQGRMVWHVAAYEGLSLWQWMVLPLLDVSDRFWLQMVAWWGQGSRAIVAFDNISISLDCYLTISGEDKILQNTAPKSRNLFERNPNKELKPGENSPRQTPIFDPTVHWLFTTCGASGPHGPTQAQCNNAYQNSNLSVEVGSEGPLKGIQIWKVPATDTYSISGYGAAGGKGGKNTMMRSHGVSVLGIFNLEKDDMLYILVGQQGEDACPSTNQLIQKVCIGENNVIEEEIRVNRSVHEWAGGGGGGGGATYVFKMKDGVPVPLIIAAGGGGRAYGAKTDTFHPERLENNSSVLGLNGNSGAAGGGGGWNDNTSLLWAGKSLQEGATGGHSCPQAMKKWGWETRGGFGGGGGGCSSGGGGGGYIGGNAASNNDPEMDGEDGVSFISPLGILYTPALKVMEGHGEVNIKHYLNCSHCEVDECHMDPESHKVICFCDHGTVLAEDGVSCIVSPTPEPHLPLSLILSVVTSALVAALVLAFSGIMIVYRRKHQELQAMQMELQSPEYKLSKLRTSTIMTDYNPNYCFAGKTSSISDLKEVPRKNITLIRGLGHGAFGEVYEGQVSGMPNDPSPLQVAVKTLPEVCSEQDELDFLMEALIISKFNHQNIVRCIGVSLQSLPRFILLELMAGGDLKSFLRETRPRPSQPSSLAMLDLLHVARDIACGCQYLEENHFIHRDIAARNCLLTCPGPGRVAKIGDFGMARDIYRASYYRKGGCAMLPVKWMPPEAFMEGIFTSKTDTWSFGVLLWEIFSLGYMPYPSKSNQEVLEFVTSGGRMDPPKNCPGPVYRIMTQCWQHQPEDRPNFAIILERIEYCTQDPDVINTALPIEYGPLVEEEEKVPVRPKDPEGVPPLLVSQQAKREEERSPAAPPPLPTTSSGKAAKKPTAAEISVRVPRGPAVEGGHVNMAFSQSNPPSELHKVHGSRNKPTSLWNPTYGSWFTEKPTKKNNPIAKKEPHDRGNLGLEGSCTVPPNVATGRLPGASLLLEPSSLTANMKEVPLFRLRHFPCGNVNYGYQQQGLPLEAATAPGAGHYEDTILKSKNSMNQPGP
pIC50: −log10 of the molar value.

# compound, pIC50
measured = [
    ("COc1cc2c(cc1Nc1nc(Nc3cccc(F)c3C(N)=O)c3cc[nH]c3n1)N(C(=O)CN(C)C)[C@H](C)C2 [Example 248]", "6.70 to 8.30"),
    ("COc1cc(N2CCCN(C)CC2)ccc1Nc1nc(Nc2cccc(F)c2C(N)=O)c2cc[nH]c2n1 [Example 209]", "9.00 to 9.60"),
    ("CNC(=O)c1c(F)cccc1Nc1nc(Nc2cc3c(cc2OC)N(C(=O)CN(C)C)CC3)nc2[nH]ccc12 [Example 198]", "8.40 to 8.90"),
    ("CCCN1CCC=C(c2ccc(Nc3nc(Nc4ccc(C)cc4C(N)=O)c4cc[nH]c4n3)c(OC)c2)C1 [Example 33]", "9.00 to 9.60"),
    ("COc1c(Nc2nc(Nc3cccc(F)c3C(N)=O)c3cc[nH]c3n2)ccc(N2CCN(C(C)C)CC2)c1F [Example 51]", "8.40 to 8.90"),
    ("CCCN(C)CC(=O)N1CCc2cc(OC)c(Nc3nc(Nc4cccc(F)c4C(N)=O)c4cc[nH]c4n3)cc21 [Example 168]", "8.40 to 8.90"),
    ("COc1cc2c(cc1Nc1nc(Nc3cccc(F)c3C(N)=O)c3cc[nH]c3n1)CN(C(=O)CN(C)C)CC2 [Example 123]", "8.40 to 8.90"),
    ("CNC(=O)c1c(F)cccc1Nc1nc(Nc2cc(NC(=O)CN(C)C)c(C)cc2OC)nc2[nH]ccc12 [Example 256]", "9.00 to 9.60"),
]

====

target: NIH-3T3 cells overexpressing human IR (Homo sapiens); assay: IR cellular autophosphorylation (DELFIA); details: 2 h compound, insulin 3 ug/ml for 15 minutes, IC50 category

# compound, IC50
records = [
    ("CNC(=O)c1c(Nc2nc(Nc3cc4c(cc3OC)CCCN4C(=O)CN(C)C)nc3[nH]ccc23)ccc(F)c1F [Example 163]", "< 0.1 µM"),
    ("COc1cc2c(cc1Nc1nc(Nc3cccc(F)c3C(N)=O)c3cc[nH]c3n1)NCC2 [Example 140]", "> 0.5 µM"),
    ("COc1cc(N2CCOC[C@@H]2C)ccc1Nc1nc(Nc2cc(F)c(F)cc2C(N)=O)c2cc[nH]c2n1 [Example 105]", "< 0.1 µM"),
    ("CCNC(=O)c1c(F)cc(F)cc1Nc1nc(Nc2cc3c(cc2OC)CCN3C(=O)CN(C)C)nc2[nH]ccc12 [Example 151]", "0.1 to 0.5 µM"),
    ("COc1ccc(OC[C@@H](O)CN2CCCC2)cc1Nc1nc(Nc2cc(F)c(F)cc2C(N)=O)c2cc[nH]c2n1 [Example 107]", "> 0.5 µM"),
    ("CCCNC(=O)c1c(F)cc(F)cc1Nc1nc(Nc2cc3c(cc2OC)CCN3C(=O)CN(C)C)nc2[nH]ccc12 [Example 152]", "0.1 to 0.5 µM"),
    ("CNC(=O)c1c(F)cccc1Nc1nc(Nc2cc3c(cc2OC)CCCN3C(=O)CCN(C)C)nc2[nH]ccc12 [Example 213]", "> 0.5 µM"),
    ("CNC(=O)c1c(F)cccc1Nc1nc(Nc2cc(N(C)C(=O)CN(C)C)ccc2OC)nc2[nH]ccc12 [Example 242]", "< 0.1 µM"),
    ("CNC(=O)c1c(F)cccc1Nc1nc(Nc2cc3c(cc2OC)CCCN3C(=O)CN(C)C)nc2[nH]ccc12 [Example 212]", "0.1 to 0.5 µM"),
    ("COc1cc2c(cc1Nc1nc(Nc3cc(F)cc(F)c3C(N)=O)c3cc[nH]c3n1)N(C(=O)CN(C)C)CC2 [Example 189]", "< 0.1 µM"),
    ("COc1cc(N2CCN(C(C)C)CC2)ccc1Nc1nc(Nc2ccc(F)c(F)c2C(N)=O)c2cc[nH]c2n1 [Example 94]", "0.1 to 0.5 µM"),
    ("CNC(=O)c1c(F)cccc1Nc1nc(Nc2cc3c(cc2OC)CCCN3C(C)=O)nc2[nH]ccc12 [Example 215]", "> 0.5 µM"),
]
